biological target: AMP-activated protein kinase, AMPK (Homo sapiens) (UniProt P54646+O43741+P54619+Q9UGJ0+Q9Y478+Q13131+Q9UGI9); assay: AMP-dependent Kinase enzyme assay. An in vitro enzyme assay that detects ADP turnover that is directly proportional to AMPK activity. This uses naive AMPK that is activated during the assay with MK-8722; format: functional; design: scale not given: direction of the effect not stated beside the values; settings: 30 µM
Each record here notes measured Percent Effect.
Value expressed in %; do not type the unit.

Worked cases, answers included:
Measured Percent Effect of Cc1cc(CN2CCN(C(=O)NC(C)Cn3ccnc3)CC2)no1 (centres undefined) : 3.31

Measured Percent Effect of CCN1CCN(C2CCN(Cc3ncc(C(C)(C)C)o3)CC2)C1=O : 6.42

Measured Percent Effect of Cc1cc(CN2CCN(C(=O)c3sccc3C3CC3)CC2)on1 : 2.54

Measured Percent Effect of Cc1ncsc1C(=O)N(C)Cc1cccc(Cl)c1 : -2.9

Measured Percent Effect of Cc1ccc(C(CNCc2ccncc2)N2CCOCC2)s1 (centres undefined) : -3.34

Next:
Measured Percent Effect of Cc1nnc(N2C[C@H](C(=O)NCC3CC3)[C@@H]3CCO[C@@H]3C2)s1 : 3.72

Measured Percent Effect of Cc1nc(C)n(CC2CCCN(CCc3ccccn3)C2)n1 (centres undefined) : -5.61

Measured Percent Effect of CCOc1ccc(Cl)c(C(=O)N2CCN(CCO)CC2)n1 : -0.195

Measured Percent Effect of O=C(c1cccc(CN2CCCC2)c1)N1CCCC(n2cncn2)C1 (centres undefined) : -12.1

Measured Percent Effect of CNC(=O)CS(=O)(=O)C1CCN(S(=O)(=O)C2CC2)CC1 : -0.0113

Measured Percent Effect of CCC1(CC)Cc2ccccc2-c2nc(NCCO)[nH]c(=O)c21 : 29.9

Measured Percent Effect of CCCS(=O)(=O)NCC1CCOc2ccccc2C1 (centres undefined) : 3.87

###

Each record here notes measured Percent Effect.
target: Sialic acid-binding Ig-like lectin 9 (Homo sapiens) (UniProt Q9Y336); test: Hs-Siglec9 ALPHAscreen SOP 20170721; parameters: scale not given: direction of the effect not stated beside the values; details: 10 µM
Sequence (Q9Y336 whole entry): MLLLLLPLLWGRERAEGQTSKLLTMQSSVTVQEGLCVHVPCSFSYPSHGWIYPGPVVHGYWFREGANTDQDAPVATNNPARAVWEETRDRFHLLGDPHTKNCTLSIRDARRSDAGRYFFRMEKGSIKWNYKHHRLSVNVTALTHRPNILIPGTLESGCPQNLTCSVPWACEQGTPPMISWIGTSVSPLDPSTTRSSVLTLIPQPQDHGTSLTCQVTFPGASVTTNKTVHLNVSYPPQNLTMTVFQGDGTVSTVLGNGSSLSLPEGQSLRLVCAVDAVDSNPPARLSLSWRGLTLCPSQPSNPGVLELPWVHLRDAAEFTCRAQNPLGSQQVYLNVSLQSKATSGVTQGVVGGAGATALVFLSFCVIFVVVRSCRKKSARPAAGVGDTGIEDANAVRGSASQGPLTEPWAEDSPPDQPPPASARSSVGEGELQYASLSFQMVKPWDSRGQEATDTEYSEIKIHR

Worked cases, answers included:
Measured Percent Effect of CN1CCCC[C@@H]2[C@H]1[C@@H](c1ccccc1)CCN2C(=O)c1ccccc1 : 3.03%

Measured Percent Effect of COc1ncccc1C(=O)Nc1nc2c(s1)CN(S(=O)(=O)C1CC1)CC2 : -2.45%

Measured Percent Effect of Cc1ccc(-c2ncc(C(=O)NCCS(N)(=O)=O)s2)c(C)c1 : 0.84%

Measured Percent Effect of COCCn1ccc2cc(NC(C)=O)ccc21 : 7.23%

Measured Percent Effect of COc1ccc(CN(C)CC2CCCN2c2cccnn2)cc1F (stereo unspecified) : -7.91%

Consider now this further molecule.
Measured Percent Effect of Cc1noc(C(C)C)c1C(=O)NCc1cccc(N(C)C)c1 : -1.43%

###

molecular target: Tyrosyl-tRNA synthetase, putative (Trypanosoma cruzi (strain CL Brener)) (UniProt Q4DSP6); assay: Trypanosoma cruzi tyrosyl tRNA synthetase (TcYRS) _High Tyrosine SOP; format: functional; parameters: scale not given: in the data most compounds retested in dose-response had high values; details: 30 µM
Sequence (Q4DSP6 as listed by the source): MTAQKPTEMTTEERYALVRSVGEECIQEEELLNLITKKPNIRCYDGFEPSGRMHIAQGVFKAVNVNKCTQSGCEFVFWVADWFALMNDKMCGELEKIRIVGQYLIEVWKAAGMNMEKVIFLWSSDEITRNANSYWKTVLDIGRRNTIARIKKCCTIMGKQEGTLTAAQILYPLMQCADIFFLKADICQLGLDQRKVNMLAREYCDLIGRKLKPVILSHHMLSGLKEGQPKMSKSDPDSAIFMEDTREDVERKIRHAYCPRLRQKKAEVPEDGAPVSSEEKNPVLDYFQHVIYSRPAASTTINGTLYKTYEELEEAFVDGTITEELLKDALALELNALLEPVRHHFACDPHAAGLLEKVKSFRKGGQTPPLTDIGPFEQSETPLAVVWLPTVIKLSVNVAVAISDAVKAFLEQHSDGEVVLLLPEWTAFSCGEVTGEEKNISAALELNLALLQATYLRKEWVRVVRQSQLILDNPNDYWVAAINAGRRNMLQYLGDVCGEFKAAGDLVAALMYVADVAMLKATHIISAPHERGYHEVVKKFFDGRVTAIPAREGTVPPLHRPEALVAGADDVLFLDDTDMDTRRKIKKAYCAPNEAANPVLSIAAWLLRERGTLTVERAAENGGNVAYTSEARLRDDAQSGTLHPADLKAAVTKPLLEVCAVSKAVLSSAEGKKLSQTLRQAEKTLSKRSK
Each record here notes measured Percent Effect.
Value expressed in %; do not type the unit.

Worked cases, answers included:
Measured Percent Effect (Tyrosyl-tRNA synthetase, putative (Trypanosoma cruzi (strain CL Brener)) (UniProt Q4DSP6)), entry O=C(c1cnccn1)N1CCOC2(CCN(Cc3ccsc3)CC2)C1 : 2.08

Measured Percent Effect (Tyrosyl-tRNA synthetase, putative (Trypanosoma cruzi (strain CL Brener)) (UniProt Q4DSP6)), entry COCC1CC2(CCN(C(=O)c3occc3C)CC2)CO1 (stereo unspecified) : -2.12

Measured Percent Effect (Tyrosyl-tRNA synthetase, putative (Trypanosoma cruzi (strain CL Brener)) (UniProt Q4DSP6)), entry Cc1csc(C2CCCCN2C(=O)CN(C)C2CC2)n1 (stereo unspecified) : 1.04

Measured Percent Effect (Tyrosyl-tRNA synthetase, putative (Trypanosoma cruzi (strain CL Brener)) (UniProt Q4DSP6)), entry O=C1[C@@H]2CCN(Cc3ccncc3)C[C@@H]2OCCN1c1ccccc1 : 8.51

Measured Percent Effect (Tyrosyl-tRNA synthetase, putative (Trypanosoma cruzi (strain CL Brener)) (UniProt Q4DSP6)), entry CCN(CC)C(=O)CN(C)C1CCc2ccccc21 (stereo unspecified) : 8.33

Measured Percent Effect (Tyrosyl-tRNA synthetase, putative (Trypanosoma cruzi (strain CL Brener)) (UniProt Q4DSP6)), entry COc1cc(C)nc(N2CCN(C(=O)CCn3cc(C)cn3)CC2)n1 : -6.4

Measured Percent Effect (Tyrosyl-tRNA synthetase, putative (Trypanosoma cruzi (strain CL Brener)) (UniProt Q4DSP6)), entry O=C(c1ccco1)N1CCCC(c2cc(C(F)F)n3ncnc3n2)C1 (stereo unspecified) : 0

Measured Percent Effect (Tyrosyl-tRNA synthetase, putative (Trypanosoma cruzi (strain CL Brener)) (UniProt Q4DSP6)), entry Cc1cc(C(=O)N2CCC(c3nccn3Cc3ccncc3)CC2)no1 : 8.6

Measured Percent Effect (Tyrosyl-tRNA synthetase, putative (Trypanosoma cruzi (strain CL Brener)) (UniProt Q4DSP6)), entry CCc1nc(CN2CCCC(NCc3cnn(C(C)(C)C)c3)C2)no1 (stereo unspecified) : -1.48

Measured Percent Effect (Tyrosyl-tRNA synthetase, putative (Trypanosoma cruzi (strain CL Brener)) (UniProt Q4DSP6)), entry CS(=O)(=O)NC[C@]12COC[C@H]1CN(CC1CCCC1)C2 : 2.16

Consider now this further compound.
Measured Percent Effect (Tyrosyl-tRNA synthetase, putative (Trypanosoma cruzi (strain CL Brener)) (UniProt Q4DSP6)), entry Cc1ccc2c(c1)c(CNC(=O)C1CC(=O)N(C3CCCC3)C1)nn2C (stereo unspecified) : 3.7

Measured values drawn from ChEMBL document CHEMBL3988442 for this set.
